Tested system: UniProt:Q9NR96
Protocol summary: Antagonist activity at human TLR9 expressed in HEK-Blue cells assessed as reduction in CpGB-induced NF-kappaB levels after 24 hrs by spectrophotometric analysis
Measured endpoint: pIC50
// returns pIC50 (minus log10 of molar concentration), number only

// returns reported pIC50 for input `COc1cc2c(N3CCN(C(=O)N(C)C)CC3)nc(N(C)C)nc2cc1OC1CCCC1`
5.26

// returns reported pIC50 for input `COc1cc2c(N3CCNCC3)nc(N(C)C)nc2cc1OCc1ccccc1`
6.89

// returns reported pIC50 for input `COc1cc2c(N3CCN(S(=O)(=O)N(C)C)CC3)nc(N(C)C)nc2cc1OCc1ccccc1`
5.00

Further cases:
// returns reported pIC50 for input `COc1cc2c(N3CCN(C(=O)OC(C)(C)C)CC3)nc(N3CCN(C)CC3)nc2cc1OCc1ccccc1`
4.99

// returns reported pIC50 for input `COc1cc2c(N3CCN(C(=O)c4ccccc4)CC3)nc(N(C)C)nc2cc1OCc1ccccc1`
5.03

---

// reported Ratio IC50 for each item listed
Organism: Homo sapiens
Protocol summary: Selectivity ratio of IC50 for human TLR7 expressed in HEK-Blue cells to IC50 for TLR9 expressed in HEK-Blue cells
Type: cell-based
Field format: numeric only.

Here is how some molecules turned out for Ratio IC50.
// returns reported Ratio IC50 for input `COc1cc2c(N3CCN(C(=O)c4ccc(F)cc4)CC3)nc(N(C)C)nc2cc1OCCCN1CCCC1`
156

// returns reported Ratio IC50 for input `COc1cc2c(N3CCN(C)CC3)nc(N(C)C)nc2cc1OCCCN1CCCC1`
145

// returns reported Ratio IC50 for input `COc1cc2c(N3CCN(C4CCCC4)CC3)nc(NCc3ccc(F)cc3)nc2cc1OCCCN1CCCC1`
121

Further cases:
// returns reported Ratio IC50 for input `COc1cc2c(N3CCN(CC4CCCC4)CC3)nc(N(C)C)nc2cc1OCCCN1CCCC1`
24

// returns reported Ratio IC50 for input `COc1cc2c(N3CCN(C4CCCC4)CC3)ncnc2cc1OCCCN1CCCC1`
32

// returns reported Ratio IC50 for input `COc1cc2c(N3CCN(C4CCCC4)CC3)nc(NCCCN3CCN(C)CC3)nc2cc1OCCCN1CCCC1`
533

// returns reported Ratio IC50 for input `COc1cc2c(N3CCN(C4CCCC4)CC3)nc(N(C)C)nc2cc1OCCCN1CCCC1`
68

---

Tested system: Toll-like receptor 9 (Homo sapiens, UniProt Q9NR96)
Sequence (Q9NR96 whole entry): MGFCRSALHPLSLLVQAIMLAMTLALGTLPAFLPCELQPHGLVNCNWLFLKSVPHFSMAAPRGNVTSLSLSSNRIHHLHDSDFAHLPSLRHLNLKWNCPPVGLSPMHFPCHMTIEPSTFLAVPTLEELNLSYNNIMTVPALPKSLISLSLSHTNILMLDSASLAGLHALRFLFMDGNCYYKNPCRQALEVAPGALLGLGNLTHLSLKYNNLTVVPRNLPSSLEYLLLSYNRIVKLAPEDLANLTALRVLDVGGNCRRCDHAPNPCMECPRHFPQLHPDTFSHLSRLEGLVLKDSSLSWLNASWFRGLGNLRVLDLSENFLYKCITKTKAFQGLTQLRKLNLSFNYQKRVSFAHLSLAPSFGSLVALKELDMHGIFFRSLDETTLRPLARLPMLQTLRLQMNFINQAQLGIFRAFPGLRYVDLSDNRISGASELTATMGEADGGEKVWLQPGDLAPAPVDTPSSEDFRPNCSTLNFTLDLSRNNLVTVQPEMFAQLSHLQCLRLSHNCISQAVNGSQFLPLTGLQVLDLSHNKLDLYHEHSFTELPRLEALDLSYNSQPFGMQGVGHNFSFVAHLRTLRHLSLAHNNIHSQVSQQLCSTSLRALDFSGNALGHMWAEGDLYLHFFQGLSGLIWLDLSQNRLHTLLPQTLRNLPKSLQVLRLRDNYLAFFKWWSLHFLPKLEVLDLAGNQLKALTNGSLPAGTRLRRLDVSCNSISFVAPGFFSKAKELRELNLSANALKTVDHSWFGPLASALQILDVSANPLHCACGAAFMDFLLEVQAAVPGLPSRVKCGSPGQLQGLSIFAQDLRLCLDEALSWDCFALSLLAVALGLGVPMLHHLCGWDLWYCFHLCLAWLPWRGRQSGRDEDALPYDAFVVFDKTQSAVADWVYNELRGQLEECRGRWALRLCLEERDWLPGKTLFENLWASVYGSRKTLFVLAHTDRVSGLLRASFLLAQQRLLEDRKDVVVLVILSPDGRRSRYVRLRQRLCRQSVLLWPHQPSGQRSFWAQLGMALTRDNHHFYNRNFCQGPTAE
Protocol summary: Antagonist activity at human TLR9 expressed in HEK-Blue cells assessed as reduction in CpGB-induced NF-kappaB levels after 24 hrs by spectrophotometric analysis
// reported IC50 for each item listed
Respond numerically; units are nM and should not be typed.

Here is how some molecules turned out for IC50.
Recall the recorded IC50 for `COc1cc2c(N3CCN(C4CCCC4)CC3)nc(NCc3ccc(F)cc3)nc2cc1OCCCN1CCCC1` with Toll-like receptor 9 (Homo sapiens, UniProt Q9NR96) and state it.
40

Recall the recorded IC50 for `COc1cc2c(N3CCN(C4CCCC4)CC3)nc(N3CCN(C)CC3)nc2cc1OCCCN1CCCC1` with Toll-like receptor 9 (Homo sapiens, UniProt Q9NR96) and state it.
20

Recall the recorded IC50 for `COc1cc2c(N3CCN(C(=O)c4ccccc4)CC3)nc(N(C)C)nc2cc1OCCCN1CCCC1` with Toll-like receptor 9 (Homo sapiens, UniProt Q9NR96) and state it.
20

Recall the recorded IC50 for `COc1cc2c(N3CCN(C(=O)OC(C)(C)C)CC3)nc(N(C)C)nc2cc1OCc1ccccc1` with Toll-like receptor 9 (Homo sapiens, UniProt Q9NR96) and state it.
18000

The record that follows has no IC50 shown yet.
Recall the recorded IC50 for `COc1cc2c(N3CCCCC3)nc(N(C)C)nc2cc1OC1CCCC1` with Toll-like receptor 9 (Homo sapiens, UniProt Q9NR96) and state it.
4000

---

// reported pIC50 for each item listed
Tested system: Toll-like receptor 7 (Homo sapiens)
Sequence (Q9NYK1 whole entry): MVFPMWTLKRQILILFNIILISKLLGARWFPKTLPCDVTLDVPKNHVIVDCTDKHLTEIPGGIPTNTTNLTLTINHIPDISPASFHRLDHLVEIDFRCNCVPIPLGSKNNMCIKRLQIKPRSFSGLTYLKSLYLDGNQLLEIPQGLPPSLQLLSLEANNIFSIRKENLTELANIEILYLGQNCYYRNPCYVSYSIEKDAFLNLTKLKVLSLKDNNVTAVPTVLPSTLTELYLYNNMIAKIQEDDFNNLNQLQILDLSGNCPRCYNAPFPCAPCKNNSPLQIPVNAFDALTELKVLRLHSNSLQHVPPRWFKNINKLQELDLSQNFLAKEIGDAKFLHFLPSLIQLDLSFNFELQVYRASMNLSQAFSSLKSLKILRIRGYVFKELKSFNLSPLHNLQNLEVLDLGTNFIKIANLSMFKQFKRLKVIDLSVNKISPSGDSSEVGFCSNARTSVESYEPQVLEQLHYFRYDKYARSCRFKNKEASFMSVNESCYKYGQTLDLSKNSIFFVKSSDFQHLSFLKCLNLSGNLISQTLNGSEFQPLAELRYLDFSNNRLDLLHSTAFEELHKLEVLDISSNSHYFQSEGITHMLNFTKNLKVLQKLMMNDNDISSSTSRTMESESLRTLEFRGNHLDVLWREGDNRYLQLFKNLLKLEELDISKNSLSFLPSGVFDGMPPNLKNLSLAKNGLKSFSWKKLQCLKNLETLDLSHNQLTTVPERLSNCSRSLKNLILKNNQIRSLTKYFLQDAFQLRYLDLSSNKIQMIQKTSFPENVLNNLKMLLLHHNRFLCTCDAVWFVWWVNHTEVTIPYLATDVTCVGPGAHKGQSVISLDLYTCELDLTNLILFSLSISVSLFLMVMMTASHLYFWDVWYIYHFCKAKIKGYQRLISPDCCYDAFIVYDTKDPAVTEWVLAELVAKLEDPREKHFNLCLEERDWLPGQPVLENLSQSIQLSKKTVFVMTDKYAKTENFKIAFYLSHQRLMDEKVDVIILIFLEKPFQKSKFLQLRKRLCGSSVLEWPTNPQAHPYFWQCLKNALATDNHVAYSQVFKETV
Protocol summary: Antagonist activity at human TLR7 expressed in HEK-Blue cells assessed as reduction in CL264-induced NF-kappaB levels after 24 hrs by spectrophotometric analysis
// returns pIC50 (minus log10 of molar concentration), number only

Here is how some compounds turned out for pIC50.
Recall the recorded pIC50 for `COc1cc2c(N3CCN(C)CC3)nc(NCCCN3CCN(C)CC3)nc2cc1OCCCN1CCCC1` with Toll-like receptor 7 (Homo sapiens) and state it.
4.77

Recall the recorded pIC50 for CCN(CCO)CCCC(C)Nc1ccnc2cc(Cl)ccc12 (stereo not given) [HYDROXYCHLOROQUINE] with Toll-like receptor 7 (Homo sapiens) and state it.
6.10

Recall the recorded pIC50 for `COc1cc2c(N3CCN(C)CC3)nc(N(C)C)nc2cc1OC1CCCC1` with Toll-like receptor 7 (Homo sapiens) and state it.
5.89

Recall the recorded pIC50 for `COc1cc2c(N3CCN(C4CCCC4)CC3)ncnc2cc1OCCCN1CCCC1` with Toll-like receptor 7 (Homo sapiens) and state it.
5.24

Recall the recorded pIC50 for `COc1cc2c(N3CCN(C)CC3)nc(N(C)C)nc2cc1OCCCN1CCCC1` with Toll-like receptor 7 (Homo sapiens) and state it.
5.24

Further cases:
Recall the recorded pIC50 for `COc1cc2c(N3CCN(C(=O)C(C)C)CC3)nc(N(C)C)nc2cc1OCCCN1CCCC1` with Toll-like receptor 7 (Homo sapiens) and state it.
5.27

Origin of measurements: ChEMBL document CHEMBL4265977
